We begin with a simple list: items and their reported remaining at 0.5 h.
protocolDetails: Metabolic stability in rat liver microsomes after 30 mins by LC-MS/MS analysis
Type: ADME
testContext: read-out: Stability
Please reply with the bare figure in % and do not write the unit itself.

Use these answered entries as a reference point.
>>> recordedvalue("CC(=O)NC[C@H]1CN(c2cc(F)c(N3CC[Si](C)(C)CC3)c(F)c2)C(=O)O1")
9.6
>>> recordedvalue("CC(=O)NC[C@H]1CN(c2ccc(N3CCOCC3)c(F)c2)C(=O)O1")
88.3
>>> recordedvalue("COC(=S)NC[C@H]1CN(c2ccc(N3CC[Si](C)(C)CC3)c(F)c2)C(=O)O1")
5.7

# context switch: different compound, same remaining at 0.5 h
What the record says about CC(=O)NC[C@H]1CN(c2ccc(N3CC[Si](C)(C)CC3)c(F)c2)C(=O)O1 : remaining at 0.5 h is 10.8

Value source: ChEMBL document CHEMBL3751664
